# experimental-protocol: in vivo
# Parameters: species or system mice
# details: male, NOD.Cg-Rag1tm1Mom Il2rgtm1Wjl/SzJ (NRG), mouse, iv, total radioactivity, Biodistribution: Kidneys
Where a SMILES comes first, the peptide text is derived from it. Bridges are numbered along the chain shown (N, C = ends). Side-chain parts run from the residue outwards. [ ]: non-standard residue; d: D form. The star is where a group is joined. X5 = O=C(O)CN1CCN(CC(=O)O)CCN(CC(=O)N[C@@H](CS(=O)(=O)O)C(=O)N[C@@H](CCCCNC(=O)CCCc2ccc(Cl)cc2)C(=O)*)CCN(CC(=O)O)CC1; X1 = O=C(O)CN1CCN(CC(=O)O)CCN(CC(=O)N[C@@H](CS(=O)(=O)O)C(=O)N[C@@H](CCCCNC(=O)CCCc2ccc(I)cc2)C(=O)*)CCN(CC(=O)O)CC1; X7 = COc1ccc(CCCC(=O)NCCCC[C@H](NC(=O)CN2CCN(CC(=O)O)CCN(CC(=O)O)CCN(CC(=O)O)CC2)C(=O)*)cc1; 2Nal = N[C@@H](Cc1ccc2ccccc2c1)C(=O)O; Lys(iPr) = CC(C)NCCCC[C@H](N)C(=O)O; Cya = N[C@@H](CS(=O)(=O)O)C(=O)O
attribute-measured: tissue uptake at 1 h (%ID/g)
Report the figure in %ID/g without appending any unit label.

Looking up CC(C)NCCCC[C@H](NC(=O)[C@H]1CCC(=O)N[C@@H](CCCCNC(=O)[C@H](CCCCNC(=O)CCCc2ccc(Cl)cc2)NC(=O)[C@H](CS(=O)(=O)O)NC(=O)CN2CCN(CC(=O)O)CCN(CC(=O)O)CCN(CC(=O)O)CC2)C(=O)N[C@@H](Cc2ccc(O)cc2)C(=O)N[C@@H](CCCCNC(C)C)C(=O)N[C@H](CCCNC(=N)N)C(=O)N[C@@H](Cc2ccc3ccccc3c2)C(=O)N[C@H](C)C(=O)N1)C(N)=O [[^68Ga]Ga-BL34L16, metal not drawn] (K(X5)Y[Lys(iPr)][dR][2Nal][dA][dE][Lys(iPr)]-NH2; lactam N-7) , I found its tissue uptake at 1 h recorded as 3.56

Looking up COc1ccc(CCCC(=O)NCCCC[C@H](NC(=O)CN2CCN(CC(=O)O)CCN(CC(=O)O)CCN(CC(=O)O)CC2)C(=O)N[C@@H](CS(=O)(=O)O)C(=O)NCCCC[C@@H]2NC(=O)CC[C@H](C(=O)N[C@@H](CCCCNC(C)C)C(N)=O)NC(=O)[C@@H](C)NC(=O)[C@H](Cc3ccc4ccccc4c3)NC(=O)[C@@H](CCCNC(=N)N)NC(=O)[C@H](CCCCNC(C)C)NC(=O)[C@H](Cc3ccc(O)cc3)NC2=O)cc1 [[68Ga]Ga-BL34L6, metal not drawn] (K([Cya-X7])Y[Lys(iPr)][dR][2Nal][dA][dE][Lys(iPr)]-NH2; lactam N-7) , I found its tissue uptake at 1 h recorded as 2.07

Looking up CC(C)NCCCC[C@H](NC(=O)[C@H]1CCC(=O)N[C@@H](CCCCNC(=O)[C@H](CCCCNC(=O)CCCc2ccc(I)cc2)NC(=O)[C@H](CS(=O)(=O)O)NC(=O)CN2CCN(CC(=O)O)CCN(CC(=O)O)CCN(CC(=O)O)CC2)C(=O)N[C@@H](Cc2ccc(O)cc2)C(=O)N[C@@H](CCCCNC(C)C)C(=O)N[C@H](CCCNC(=N)N)C(=O)N[C@@H](Cc2ccc3ccccc3c2)C(=O)N[C@H](C)C(=O)N1)C(N)=O [[^68Ga]Ga-BL34L11, metal not drawn] (K(X1)Y[Lys(iPr)][dR][2Nal][dA][dE][Lys(iPr)]-NH2; lactam N-7) , I found its tissue uptake at 1 h recorded as 5.39
